assay explanation: qHTS assay to identify small molecule antagonists of the farnesoid-X-receptor (FXR) signaling pathway - cell viability counter screen (AID 743221); also: nearly all actives have a fitted effect of over 50% in size
particulars: FXR-bla HEK293T viability, CellTiter-Glo luminescence, 16 h; series mostly up to 62.6 µM
Records with an inconclusive call do not appear. The source made the active and inactive calls. Calls follow the shape of the dose curve; as a rule, active = well fitted cell-killing curve with a large enough effect in the repeat runs (not every such curve was filed as active); inconclusive = weak or mixed curves, or effect the other way; inactive = no such curve, though single readings can be large or run the other way.
result type: outcome

CCCC(CCC)C(=O)O; inactive
O=c1ccc2ccccc2o1; inactive
CCCN(CCC)S(=O)(=O)c1ccc(C(=O)O)cc1; inactive
CCCC(O)C(CC)CO (stereo not drawn); inactive
Cn1c(=O)c2[nH]cnc2n(C)c1=O; inactive
CCC1(c2ccccc2)C(=O)NCNC1=O; inactive
Cn1cc[nH]c1=S; inactive
O=S(=O)(O)c1ccc2cc(O)ccc2c1; inactive
O=C(O)CCCCCCCC(=O)O; inactive
NC(N)=NC(=O)c1nc(Cl)c(N)nc1N; inactive

Working through the 3 molecules below one at a time, give outcome for each.
1. CC(O)C(=O)O (stereo not drawn)
2. C/C=C/c1ccc(OC)cc1
3. CCCCC(CC)COC(=O)/C=C/c1ccc(OC)cc1 (stereo not drawn)

// result
["inactive", "inactive", "inactive"]
